Measured values drawn from patent US20240018237A1 for this set.

- Test Target: T1, human ROR1 (full-length, on the cell surface) (human, UniProt Q01973 30-937)
- T1 construct: whole, on cells; the tumour cell lines carry their own ROR1; also called Ba/F3-ROR1 cells; Jeko-1
- T1 sequence (Q01973 30-937): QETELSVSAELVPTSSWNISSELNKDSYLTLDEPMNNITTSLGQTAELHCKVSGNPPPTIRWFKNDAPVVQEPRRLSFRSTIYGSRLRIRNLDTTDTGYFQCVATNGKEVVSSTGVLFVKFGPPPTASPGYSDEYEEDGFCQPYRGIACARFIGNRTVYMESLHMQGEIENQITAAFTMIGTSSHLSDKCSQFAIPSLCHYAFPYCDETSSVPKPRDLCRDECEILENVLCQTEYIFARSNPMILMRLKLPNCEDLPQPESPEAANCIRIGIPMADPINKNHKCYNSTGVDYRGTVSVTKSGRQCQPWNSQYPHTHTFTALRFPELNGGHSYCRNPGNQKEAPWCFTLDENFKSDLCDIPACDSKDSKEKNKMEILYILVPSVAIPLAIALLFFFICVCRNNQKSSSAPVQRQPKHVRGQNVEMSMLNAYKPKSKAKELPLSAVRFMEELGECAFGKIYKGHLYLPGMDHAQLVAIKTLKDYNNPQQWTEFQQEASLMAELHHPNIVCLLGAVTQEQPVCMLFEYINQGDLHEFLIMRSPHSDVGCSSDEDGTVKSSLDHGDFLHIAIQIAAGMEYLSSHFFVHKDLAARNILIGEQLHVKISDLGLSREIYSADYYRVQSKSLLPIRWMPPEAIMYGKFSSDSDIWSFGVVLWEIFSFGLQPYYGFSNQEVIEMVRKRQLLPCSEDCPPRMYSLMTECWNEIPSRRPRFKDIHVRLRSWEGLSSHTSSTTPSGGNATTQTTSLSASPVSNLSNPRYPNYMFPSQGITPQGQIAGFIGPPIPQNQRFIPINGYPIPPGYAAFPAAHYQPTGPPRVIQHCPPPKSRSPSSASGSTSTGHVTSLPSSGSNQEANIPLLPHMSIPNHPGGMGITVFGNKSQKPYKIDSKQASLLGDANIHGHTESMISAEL
- Assay Comment: flow cytometry, A549 cells
Label class 1 when EC50 is strictly below 0.2 nM; otherwise label class 0.

**Query** Item 3D8-HuC54 (antibody, human IgG1, kappa, V domains shown, humanized, human IgG1 / kappa) VH: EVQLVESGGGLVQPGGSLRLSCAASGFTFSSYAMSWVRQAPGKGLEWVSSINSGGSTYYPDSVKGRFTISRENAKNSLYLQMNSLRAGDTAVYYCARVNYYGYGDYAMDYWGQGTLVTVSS VL: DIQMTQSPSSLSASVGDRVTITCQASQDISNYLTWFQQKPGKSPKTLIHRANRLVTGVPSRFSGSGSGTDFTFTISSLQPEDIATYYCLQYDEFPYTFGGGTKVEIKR : EC50 beneath 0.2 nM, strictly?
**Result** class 0

**Query** Item 19F6-Hu35V4 (antibody, human IgG1, kappa, V domains shown, humanized, human IgG1 / kappa) VH: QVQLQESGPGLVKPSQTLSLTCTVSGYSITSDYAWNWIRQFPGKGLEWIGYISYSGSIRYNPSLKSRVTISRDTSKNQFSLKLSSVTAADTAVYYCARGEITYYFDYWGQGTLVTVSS VL: ETTLTQSPAFMSATPGDKVTISCKASTSIDNDMNWYQQKPGKPPKLIISEGNTLRPGIPPRFSSSGYGTDFTFTINKIESEDAATYYCLQSNDLPLTFGQGTKLEIKR : EC50 beneath 0.2 nM, strictly?
**Result** class 1

**Query** is_below(EC50, 0.2 nM) for 38F8-Hu17 (antibody, human IgG1, kappa, V domains shown, humanized, human IgG1 / kappa) VH: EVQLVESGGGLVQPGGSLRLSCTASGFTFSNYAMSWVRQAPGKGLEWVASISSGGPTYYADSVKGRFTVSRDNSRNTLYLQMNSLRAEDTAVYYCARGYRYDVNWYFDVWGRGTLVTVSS VL: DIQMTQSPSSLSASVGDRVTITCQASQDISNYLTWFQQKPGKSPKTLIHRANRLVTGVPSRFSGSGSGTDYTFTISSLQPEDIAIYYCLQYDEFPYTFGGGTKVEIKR ?
**Result** class 0

**Query** Strictly below 0.2 nM in EC50? 3D8-Hu27 (antibody, human IgG1, kappa, V domains shown, humanized, human IgG1 / kappa) VH: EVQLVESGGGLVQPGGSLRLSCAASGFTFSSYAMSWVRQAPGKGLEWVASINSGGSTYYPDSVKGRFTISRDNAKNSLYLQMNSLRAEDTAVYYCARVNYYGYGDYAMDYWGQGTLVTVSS VL: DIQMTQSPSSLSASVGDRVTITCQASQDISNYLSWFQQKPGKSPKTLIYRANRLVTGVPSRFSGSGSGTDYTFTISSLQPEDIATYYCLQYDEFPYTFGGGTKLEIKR
**Result** class 0

**Query** API: query returns whether the binder falls strictly under 0.2 nM in EC50. Query: 3D8-Hu85 (antibody, human IgG1, kappa, V domains shown, humanized, human IgG1 / kappa) VH: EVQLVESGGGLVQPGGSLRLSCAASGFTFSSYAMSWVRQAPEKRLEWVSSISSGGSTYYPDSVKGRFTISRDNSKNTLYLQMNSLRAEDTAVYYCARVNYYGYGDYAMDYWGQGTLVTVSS VL: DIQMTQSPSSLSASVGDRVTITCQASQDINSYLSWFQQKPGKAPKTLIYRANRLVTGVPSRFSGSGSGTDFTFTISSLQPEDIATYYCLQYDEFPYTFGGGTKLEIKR
**Result** class 0
